- test.method.notes: Pharmacokinetics of caspofungin during continuous venovenous hemodiafiltration (CVVHD)
- Assay type: in vivo, human
- measurement.parameters: human, in vivo, iv, patient 10; 2 h after infusion ended; steady state, CVVHD; HPLC; read-out: Arterial caspofungin concentration
measure.name: level at 2 h (ng/mL)
Write it as a number; the unit ng/mL goes unstated.

INPUT: If you can, please state the reported level at 2 h value of CC[C@H](C)C[C@H](C)CCCCCCCCC(=O)N[C@H]1C[C@@H](O)[C@@H](NCCN)NC(=O)[C@@H]2[C@@H](O)CCN2C(=O)[C@H]([C@H](O)CCN)NC(=O)[C@H]([C@H](O)[C@@H](O)c2ccc(O)cc2)NC(=O)[C@@H]2C[C@@H](O)CN2C(=O)[C@H]([C@@H](C)O)NC1=O [caspofungin] .
OUTPUT: 7740

* * *

- test.method.notes: Pharmacokinetics of caspofungin during continuous venovenous hemodiafiltration (CVVHD)
- Format: in vivo, human
- measurement.parameters: human, in vivo, iv, patient 4; 8 h after infusion ended; steady state, CVVHD; HPLC; read-out: Arterial caspofungin concentration
measure.name: level at 8 h (ng/mL)
Write it as a number; the unit ng/mL goes unstated.

INPUT: If you can, please state the reported level at 8 h value of CC[C@H](C)C[C@H](C)CCCCCCCCC(=O)N[C@H]1C[C@@H](O)[C@@H](NCCN)NC(=O)[C@@H]2[C@@H](O)CCN2C(=O)[C@H]([C@H](O)CCN)NC(=O)[C@H]([C@H](O)[C@@H](O)c2ccc(O)cc2)NC(=O)[C@@H]2C[C@@H](O)CN2C(=O)[C@H]([C@@H](C)O)NC1=O .
OUTPUT: 1990

* * *

- test.method.notes: Pharmacokinetics of caspofungin during continuous venovenous hemodiafiltration (CVVHD)
- Format: in vivo, human
- measurement.parameters: human, in vivo, iv, patient 10; 8 h after infusion ended; steady state, CVVHD; HPLC; read-out: Arterial caspofungin concentration
measure.name: level at 8 h (ng/mL)
Write it as a number; the unit ng/mL goes unstated.

INPUT: If you can, please state the reported level at 8 h value of CC[C@H](C)C[C@H](C)CCCCCCCCC(=O)N[C@H]1C[C@@H](O)[C@@H](NCCN)NC(=O)[C@@H]2[C@@H](O)CCN2C(=O)[C@H]([C@H](O)CCN)NC(=O)[C@H]([C@H](O)[C@@H](O)c2ccc(O)cc2)NC(=O)[C@@H]2C[C@@H](O)CN2C(=O)[C@H]([C@@H](C)O)NC1=O .
OUTPUT: 5610

* * *

- test.method.notes: Pharmacokinetics of caspofungin during continuous venovenous hemodiafiltration (CVVHD)
- Assay type: in vivo, human
- measurement.parameters: human, in vivo, iv, patient 3; 4 h after infusion ended; steady state, CVVHD; HPLC; read-out: Arterial caspofungin concentration
- Method: The aim of the present study was to describe the pharmacokinetics of caspofungin in 12 critically ill adult patients with suspected or proven invasive candidiasis who were receiving continuous venovenous hemodiafiltration (CVVHD). CVVHD was performed using a polysulfone hemofilter (Fresenius, Germany). Caspofungin was administered at usual doses. […]
measure.name: level at 4 h (ng/mL)
Write it as a number; the unit ng/mL goes unstated.

INPUT: If you can, please state the reported level at 4 h value of CC[C@H](C)C[C@H](C)CCCCCCCCC(=O)N[C@H]1C[C@@H](O)[C@@H](NCCN)NC(=O)[C@@H]2[C@@H](O)CCN2C(=O)[C@H]([C@H](O)CCN)NC(=O)[C@H]([C@H](O)[C@@H](O)c2ccc(O)cc2)NC(=O)[C@@H]2C[C@@H](O)CN2C(=O)[C@H]([C@@H](C)O)NC1=O .
OUTPUT: 6130
